I'd be grateful if you could share measured Average A450 nm for these entries.
Molecular target: T1, Human c-Met-Flis-Fc ECD (human)
T1 construct: also called human c-Met extracellular domain (ECD)-Fc-Flis fusion; Human cMet-ECD-Fc-Flis
T1 sequence (chain, as listed by the source limits assumed): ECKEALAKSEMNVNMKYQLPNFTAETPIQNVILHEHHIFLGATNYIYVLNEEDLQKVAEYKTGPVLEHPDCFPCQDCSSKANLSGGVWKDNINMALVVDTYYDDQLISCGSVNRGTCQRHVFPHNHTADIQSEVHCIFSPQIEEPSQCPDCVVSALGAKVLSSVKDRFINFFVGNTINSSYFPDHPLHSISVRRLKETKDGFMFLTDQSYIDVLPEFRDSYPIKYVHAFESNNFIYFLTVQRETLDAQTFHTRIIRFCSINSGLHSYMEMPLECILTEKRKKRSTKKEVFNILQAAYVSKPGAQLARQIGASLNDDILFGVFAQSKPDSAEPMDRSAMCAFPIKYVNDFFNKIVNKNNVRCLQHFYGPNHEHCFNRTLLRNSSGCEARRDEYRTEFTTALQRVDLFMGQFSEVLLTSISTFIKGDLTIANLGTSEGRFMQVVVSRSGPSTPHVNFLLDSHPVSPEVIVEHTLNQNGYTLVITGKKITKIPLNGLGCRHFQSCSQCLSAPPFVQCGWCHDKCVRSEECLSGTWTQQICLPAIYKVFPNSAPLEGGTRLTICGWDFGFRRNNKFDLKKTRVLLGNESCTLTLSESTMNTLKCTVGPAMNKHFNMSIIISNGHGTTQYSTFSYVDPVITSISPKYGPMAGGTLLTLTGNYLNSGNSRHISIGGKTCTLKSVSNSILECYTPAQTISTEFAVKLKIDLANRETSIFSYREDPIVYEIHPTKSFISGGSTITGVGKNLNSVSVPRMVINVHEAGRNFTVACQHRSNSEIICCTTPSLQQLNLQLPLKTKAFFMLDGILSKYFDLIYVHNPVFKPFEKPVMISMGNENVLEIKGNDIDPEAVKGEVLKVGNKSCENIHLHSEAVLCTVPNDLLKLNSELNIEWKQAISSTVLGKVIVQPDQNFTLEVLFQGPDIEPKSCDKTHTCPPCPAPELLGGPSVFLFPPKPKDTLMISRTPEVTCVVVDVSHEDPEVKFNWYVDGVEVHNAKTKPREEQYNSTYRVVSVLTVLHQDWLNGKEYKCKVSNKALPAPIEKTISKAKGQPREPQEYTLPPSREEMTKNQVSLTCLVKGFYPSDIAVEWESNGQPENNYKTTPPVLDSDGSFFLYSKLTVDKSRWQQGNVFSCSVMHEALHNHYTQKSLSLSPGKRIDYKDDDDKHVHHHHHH
Assay: ELISA, coated ECD-Fc, antibody 0.002 ng/mL
Please state the figure in A450 nm; there is no need to write the unit.

Q: Which Average A450 nm reading was recorded for the binder C8-6 (antibody, human IgG2, kappa, V domains shown, Called IgG4, kappa; also called Mab C8-6) VH: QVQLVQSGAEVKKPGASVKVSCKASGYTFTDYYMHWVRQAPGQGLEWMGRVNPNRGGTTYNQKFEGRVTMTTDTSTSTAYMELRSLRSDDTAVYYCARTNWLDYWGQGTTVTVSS VL: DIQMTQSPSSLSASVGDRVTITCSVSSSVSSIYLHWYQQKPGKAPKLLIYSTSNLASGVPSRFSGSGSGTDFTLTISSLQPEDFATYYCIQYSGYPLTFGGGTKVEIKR ?
Result: 0.326

Q: Repeat for the following binder: C8-co-16 (antibody, human IgG2, kappa, V domains shown, Called IgG4, kappa) VH: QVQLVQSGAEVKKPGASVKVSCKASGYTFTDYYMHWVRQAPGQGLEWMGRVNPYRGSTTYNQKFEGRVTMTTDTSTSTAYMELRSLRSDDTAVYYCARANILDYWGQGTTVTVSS VL: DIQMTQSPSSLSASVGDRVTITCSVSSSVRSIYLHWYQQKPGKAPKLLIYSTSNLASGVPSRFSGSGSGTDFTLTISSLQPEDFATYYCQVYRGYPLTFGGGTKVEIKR
Result: 0.369
